- System: MCF10A
- Method description: one-nucleolus phenotype percent effect (relative to siNT 0% and siNOL11 100%); higher = more cells with one nucleolus (ribosome biogenesis inhibition)
- Recorded conditions: 20 nM; 72 h
Answer each item with its documented one-nucleolus phenotype percent effect.
Answers are plain numbers, in %.

Use these answered entries as a reference point.
# Polymer sequence, Measurement type, Display unit, Value measured
rows = [
    ("ACUGGACUUGGAGUCAGAAGGC [hsa-miR-378a-3p]", "one-nucleolus phenotype percent effect", "%", -2.19),
    ("UUGGGCCCAGGAGUAAACAGGAU [hsa-miR-6773-5p]", "one-nucleolus phenotype percent effect", "%", -0.04),
    ("UCGAGGAGCUCACAGUCU [hsa-miR-151b]", "one-nucleolus phenotype percent effect", "%", 11.9),
    ("ACUGAGCCUCUCUCUCUCCAG [hsa-miR-6751-3p]", "one-nucleolus phenotype percent effect", "%", -10.3),
    ("UACCAUUAGAAGAGCUGGAAGA [hsa-miR-6512-5p]", "one-nucleolus phenotype percent effect", "%", 1.01),
]

Count: 5. Required value per item: one-nucleolus phenotype percent effect.
1. CAGCCCUCCUCCCGCACCCAAA [hsa-miR-4687-5p]
2. UAAAAUUUGCAUCCAGGA [hsa-miR-4282]
3. GUUGGGGUGCAGGGGUCUGCU [hsa-miR-5572]
4. CCCUUCCCUCACUCUUCUCUCAG [hsa-miR-6734-3p]
5. GUGAGGGCAUGCAGGCCUGGAUGGGG [hsa-miR-1226-5p]

1. -10.4
2. -28.5
3. 43.3
4. -3.15
5. -14.2

Provide the reported one-nucleolus phenotype percent effect of each entry below, same order.
1. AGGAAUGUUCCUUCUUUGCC [hsa-miR-613]
2. UGUCUUUCUUCUCUCCCUUGCAG [hsa-miR-6830-3p]
3. UGGCGGCGGUAGUUAUGGGCUU [hsa-miR-4467]
4. AUAAUACAACCUGCUAAGUGCU [hsa-miR-374c-5p]
5. AAACUAAUAUACCCAUAUUCUG [hsa-miR-5583-5p]
6. CGGCCCGGGCUGCUGCUGUUCCU [hsa-miR-1538]
7. UUGCUAGUUGCACUCCUCUCUGU [hsa-miR-449c-3p]

1: 36.5; 2: 58; 3: 39.9; 4: 26.4; 5: -23.4; 6: -27.8; 7: 7.23

Look at each sequence and report its one-nucleolus phenotype percent effect.
1. AACCCAGUGGGCUAUGGAAAUG [hsa-miR-4482-5p]
2. UGGAGUCCAGGAAUCUGCAUUUU [hsa-miR-1289]
3. UUCUGCUGCCGGCCAAGGC [hsa-miR-6071]
4. AUUGUAGAACCUAAGAUUGGCC [hsa-miR-3674]
5. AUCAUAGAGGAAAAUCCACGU [hsa-miR-376a-3p]
6. AGCCGCUCUUCUCCCUGCCCACA [hsa-miR-6743-3p]
7. AGAGCUUAGCUGAUUGGUGAAC [hsa-miR-27b-5p]

1. 59.8
2. 78.3
3. 22.1
4. 40.2
5. -19.3
6. -1.42
7. 17.8
